target: human vanin-1 (Homo sapiens (Human), UniProt O95497); test: Human Vanin-1 Enzyme Assay 1; type: biochemical; conditions: 25 pM human vanin-1, 50 uM pantetheine 7-amino-4-trifluoromethylcoumarin, 30 min preincubation, 60 min
Sequence (O95497 22-491): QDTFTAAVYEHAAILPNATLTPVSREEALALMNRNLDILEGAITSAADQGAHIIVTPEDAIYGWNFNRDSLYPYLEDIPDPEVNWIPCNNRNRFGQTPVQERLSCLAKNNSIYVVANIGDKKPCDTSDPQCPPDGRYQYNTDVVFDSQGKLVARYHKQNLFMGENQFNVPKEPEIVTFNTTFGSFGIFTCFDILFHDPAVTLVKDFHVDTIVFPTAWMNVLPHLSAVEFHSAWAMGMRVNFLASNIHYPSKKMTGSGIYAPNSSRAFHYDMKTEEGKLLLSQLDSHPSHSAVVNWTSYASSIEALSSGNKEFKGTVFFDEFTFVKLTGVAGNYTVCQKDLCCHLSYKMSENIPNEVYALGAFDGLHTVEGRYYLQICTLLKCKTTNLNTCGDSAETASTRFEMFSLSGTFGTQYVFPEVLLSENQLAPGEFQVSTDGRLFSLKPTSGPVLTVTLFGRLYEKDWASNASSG
Would you kindly list pIC50 for each of these molecules?
FYI, pIC50 means -log10 of a concentration in mol per litre.

(Q) Which pIC50 value belongs to N#Cc1ccc(F)c(C(=O)c2cnc(NCc3cncnc3)nc2)c1 [Example 131] ?
(A) 6.27

(Q) May I ask what pIC50 has been recorded for N#Cc1cccc(C(=O)c2cnc(NCC3CCC(O)CC3)nc2)c1 (centres unmarked) [Example 162] ?
(A) 7.14

(Q) Item Cn1ncc2cc(C(=O)c3cnc(NCc4cncnc4)nc3)ccc21 [Example 159] has what recorded pIC50?
(A) 5.56

(Q) Item under review: CS(=O)(=O)c1cccc(C(=O)c2cnc(NCc3ccc(F)cc3)nc2)c1 [Example 96] . Reported pIC50?
(A) 7.85
